Test: yeast growth modulation, basal conditions, primary screen, YJM789 clinical isolate, OD600, 24 h (AID 1089);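 also: growth of clinical yeast isolate S. cerevisiae YJM 789 seeded 1000 cells per well; test concentration not given here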
Details: S. cerevisiae YJM789 growth, higher = more signal, called active from +8 up or from −8 down
ASSAY READOUT: z-score
No unit in the answer, only the number.

[
  {
    "MOLECULE": "CC(C)CON=C1C[C@@H](O)[C@@H](O)[C@@H]2[C@@H]3C(=O)N([C@@H](C)c4ccccc4)C(=O)[C@@H]3CC[C@H]12",
    "z-score": 0.466
  },
  {
    "MOLECULE": "O=C1C2C=CC(C(O)c3ccc([N+](=O)[O-])cc3)N(Nc3ccc([N+](=O)[O-])cc3)C2C(=O)N1c1ccccc1 (configuration not stated)",
    "z-score": 0.664
  }
]

Recorded z-score for COc1ccc(O[C@H]2C=C[C@@H](c3ccccc3)O[C@@H]2COC(=O)N2CCCCC2)cc1 , please?
0.523

And CCCNC(=O)[C@@H]1c2ccccc2C(=O)N(c2ccc(C)cn2)[C@H]1c1ccc(CO)cc1 ?
-1.03

And CC(CCN1CCc2nc(-c3ccccc3)c(-c3ccccc3)cc2C1)=NO[C@@H](C)c1cn([C@H](CO)Cc2ccccc2)nn1 ?
-2.46

And NC(=O)NCC#Cc1ccc2c(c1)[C@]1(C(=O)N2)[C@H](c2ccc(O)cc2)N2[C@H](c3ccccc3)[C@H](c3ccccc3)OC(=O)[C@H]2[C@@H]1C(=O)N1CCCCCCC1 ?
1

And O=C1C2=CC[C@H]3C(=O)N(Cc4ccc5c(c4)OCO5)C(=O)[C@H]3[C@H]2[C@H](O)[C@@H]2O[C@H]12 ?
-0.108

* * *

Assay: small-molecule binders of probe aLefty1, primary screen, biochemical, small-molecule microarray, 635/667 nm fluorescence (AID 1153);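 also: score merges spot fluorescence with signal-to-noise ratio from the scanned slide images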
Details: higher = more signal
Each record's class is read off its composite z-score using these ranges: bin 0 (below -0.2), bin 1 (-0.2 to below 0.07), bin 2 (0.07 or more)

Some entries whose results are on file:
[
  {
    "COMPOUND": "C=CCOC(=O)[C@H]1[C@@H]2C(=O)O[C@@H](c3ccccc3)[C@@H](c3ccccc3)N2[C@@H](c2ccc(OCCOC(=O)[C@H]3C[C@H]4C(=O)N[C@@H](Cc5ccccc5)C(=O)N4[C@H]3c3ccc(O)cc3)cc2)[C@]12C(=O)Nc1ccccc12",
    "CATEGORY": "bin 0"
  },
  {
    "COMPOUND": "O=C1C[C@@H](O)[C@@H](O)[C@@H]2[C@@H]3C(=O)N(c4ccc(F)cc4F)C(=O)[C@@H]3CC[C@@H]12",
    "CATEGORY": "bin 1"
  },
  {
    "COMPOUND": "COC(=O)[C@@H]1N=C(c2ccc(OCCCO)cc2)O[C@@H]1c1ccccc1N=[N+]=[N-]",
    "CATEGORY": "bin 2"
  },
  {
    "COMPOUND": "C=CC[C@@H]1C=C[C@H](ON=Cc2ccc(C(=O)N3[C@H](c4ccc(C)cc4)[C@@H](C)CC[C@H]3C(=O)OC)cc2)[C@@H](CO)O1",
    "CATEGORY": "bin 1"
  },
  {
    "COMPOUND": "C/C=C\\[C@@H](NCc1ccccc1Br)[C@@H](O)Cc1ccccc1",
    "CATEGORY": "bin 2"
  }
]

Could you tell me which band CC(CCC(=O)OC[C@H]1O[C@H](C#Cc2ccccc2)C=C[C@@H]1Oc1ccc(C)cc1)=NO[C@@H](C)c1cn([C@H](CO)Cc2ccccc2)nn1 belongs to?
bin 0

And COc1ccc(COC(=O)NN=C2C[C@@H](O)[C@@H](O)[C@@H]3[C@@H]4C(=O)N(c5ccc(F)cc5F)C(=O)[C@@H]4CC[C@@H]23)cc1 ?
bin 2

And COc1ccc(O[C@H]2C=C[C@@H](c3ccccc3)O[C@@H]2COC(=O)CCC(C)=NO[C@H](C)c2cn([C@@H]3COC[C@H]3O)nn2)cc1 ?
bin 1

And CO[C@@H]1COC(=O)CCC[C@@H](C)[C@H](OC)COC(=O)[C@H](Cc2ccccc2)NC(=O)CC=C[C@H]1C ?
bin 0
